Every entry's value here was drawn from patent US20200181089A1.

Measured Viability (%) at 10 μM Melanocyte values are reported for all entries that follow.
# System: normal human melanocyte
# Experiment Summary: Melanocyte viability assay (trypan blue exclusion)
# Type: cell-based
# Condition Info: 96 h
Write the number in % without appending the unit.

[
  {
    "Structure Notation": "COc1ccc(Nc2ccnc3cc(Cl)ccc23)c(OC)c1",
    "Viability (%) at 10 μM Melanocyte": 99.5
  },
  {
    "Structure Notation": "COCCOc1cc(Nc2ccnc3cc(Cl)ccc23)ccc1OC",
    "Viability (%) at 10 μM Melanocyte": 99.1
  },
  {
    "Structure Notation": "COc1ccc(Nc2ccnc3cc(Cl)ccc23)cc1OC",
    "Viability (%) at 10 μM Melanocyte": 99.2
  }
]

Observed Viability (%) at 10 μM Melanocyte on normal human melanocyte for COc1ccc(Nc2cc(OC)nc3cc(Cl)ccc23)cc1 , please. 76.9

Moving on to the next compound: COc1ccc(Nc2cc(N3CCN(C)CC3)nc3cc(Cl)ccc23)cc1OC 91.2

Moving on to the next compound: COc1ccc(Nc2ccnc3ccc(Cl)cc23)c(OC)c1 98.7

Moving on to the next compound: FC(F)(F)Oc1ccc(Nc2ccnc3ccc(Cl)cc23)cc1 73.4

Moving on to the next compound: FC(F)Oc1ccc(Nc2ccnc3cc(Cl)ccc23)cc1 98.7

Moving on to the next compound: COc1ccc(Nc2cc(OCCN3CCOCC3)nc3cc(Cl)ccc23)cc1OC 98.6

Moving on to the next compound: COc1ccc(Nc2ccnc3cc(Cl)ccc23)cc1 99.5

* * *

Measured activity at 10 µM values are reported for all entries that follow.
# Tested on: A375 cells
# Experiment Summary: A375 cell proliferation assay (trypan blue exclusion)
# Type: cell-based
# Condition Info: Homo sapiens, A-375; A375, 10 μM, 96 h, treated/untreated cell number; read-out: Proliferation (%) At 10 μM - 96 H
Write the number in % without appending the unit.

[
  {
    "Molecule": "COc1ccc(Nc2cc(N3CCN(C)CC3)nc3cc(Cl)ccc23)cc1OC [Compound 29]",
    "Units Symbol": "%",
    "activity at 10 µM": 4.8
  }
]

Observed activity at 10 µM on A375 cells for COc1ccc(Nc2cc(OC)nc3cc(Cl)ccc23)cc1 [Compound 27] , please. 21.8

Moving on to the next molecule: COc1cc(Nc2ccc(OC)c(OC)c2)c2ccc(Cl)cc2n1 [Compound 33] 95.2

Moving on to the next molecule: COc1ccc(Nc2ccnc3cc(Cl)ccc23)cc1 [Compound 5] 58.1

Moving on to the next molecule: COCCOc1cc(Nc2ccnc3cc(Cl)ccc23)ccc1OC [Compound 35] 79.9

* * *

# System: A375 cells
# Experiment Summary: A375 cell proliferation assay (trypan blue exclusion)
# Type: cell-based
# Condition Info: Homo sapiens, A-375; A375, 1 μM, 96 h, treated/untreated cell number; read-out: Proliferation (%) At 1 μM - 96 H
Measured activity at 1 µM values are reported for all entries that follow.
Write the number in % without appending the unit.

Which measured activity at 1 µM value corresponds to COc1cc(Nc2ccc(OC)c(OC)c2)c2ccc(Cl)cc2n1 ? 97.2

* * *

Measured activity at 10 µM values are reported for all entries that follow.
# Tested on: A375 cells
# Experiment Summary: A375 cell proliferation assay (trypan blue exclusion)
# Assay type: cell-based
# Condition Info: Homo sapiens, A-375; A375, 10 μM, 96 h, treated/untreated cell number; read-out: Proliferation (%) At 10 μM - 96 H
Write the number in % without appending the unit.

[
  {
    "Structure Notation": "COc1ccc(Nc2ccnc3cc(Cl)ccc23)c(OC)c1",
    "System Tested": "A375 cells",
    "activity at 10 µM / %": 13.6
  }
]

Which measured activity at 10 µM value corresponds to COc1ccc(Nc2cc(N3CCOCC3)nc3cc(Cl)ccc23)cc1OC ? 82.8

Moving on to the next compound: FC(F)(F)Oc1ccc(Nc2ccnc3ccc(Cl)cc23)cc1 9.89

* * *

Measured activity at 10 µM values are reported for all entries that follow.
# Test system: A375 cells
# Experiment Summary: A375 cell proliferation assay (trypan blue exclusion)
# Assay type: cell-based
# Condition Info: Homo sapiens, A-375; A375, 10 μM, 96 h, treated/untreated cell number; read-out: Proliferation (%) At 10 μM - 96 H

[
  {
    "Structure Notation": "COc1cccc(Nc2ccc3c(Nc4cc(F)cc(F)c4)ccnc3c2)c1",
    "activity at 10 µM": "0%"
  },
  {
    "Structure Notation": "COc1ccc(Nc2cc(N3CCOCC3)nc3cc(Cl)ccc23)cc1",
    "activity at 10 µM": "37%"
  },
  {
    "Structure Notation": "COc1ccc(Nc2cc(N3CCN(C)CC3)nc3cc(Cl)ccc23)cc1",
    "activity at 10 µM": "3.39%"
  }
]

Which measured activity at 10 µM value corresponds to COc1ccc(Nc2ccnc3cc(Cl)ccc23)cc1OC ? 15.7%

Moving on to the next compound: COc1ccc(Nc2ccnc3ccc(Cl)cc23)c(OC)c1 53%

* * *

Measured activity at 10 µM values are reported for all entries that follow.
# System: A375 cells
# Experiment Summary: A375 cell proliferation assay (trypan blue exclusion)
# Format: cell-based
# Condition Info: Homo sapiens, A-375; A375, 10 μM, 96 h, treated/untreated cell number; read-out: Proliferation (%) At 10 μM - 96 H
Write the number in % without appending the unit.

These solved cases illustrate the format of a correct answer.
[
  {
    "Structure Notation": "Oc1ccc(Nc2ccnc3cc(Cl)ccc23)cc1",
    "activity at 10 µM (%)": 79.4
  },
  {
    "Structure Notation": "FC(F)Oc1ccc(Nc2ccnc3cc(Cl)ccc23)cc1",
    "activity at 10 µM (%)": 37.9
  },
  {
    "Structure Notation": "Oc1ccc(Nc2ccc3c(Nc4cc(F)cc(F)c4)ccnc3c2)cc1Cl",
    "activity at 10 µM (%)": 0
  },
  {
    "Structure Notation": "COc1ccc(Nc2cc(OCCN3CCOCC3)nc3cc(Cl)ccc23)cc1OC",
    "activity at 10 µM (%)": 82.2
  }
]

Which measured activity at 10 µM value corresponds to Oc1ccc(Nc2ccnc3cc(Cl)ccc23)cc1Cl ? 67.5

* * *

# System: A375 cells
# Experiment Summary: A375 cell proliferation assay (trypan blue exclusion)
# Type: cell-based
# Condition Info: Homo sapiens, A-375; A375, 1 μM, 96 h, treated/untreated cell number; read-out: Proliferation (%) At 1 μM - 96 H
Measured activity at 1 µM values are reported for all entries that follow.
Write the number in % without appending the unit.

[
  {
    "Compound": "COc1ccc(Nc2ccnc3cc(Cl)ccc23)c(OC)c1 [Compound 39]",
    "System Tested": "A375 cells",
    "Test Value": 34.3
  },
  {
    "Compound": "COc1ccc(Nc2ccnc3ccc(Cl)cc23)c(OC)c1 [Compound 37]",
    "System Tested": "A375 cells",
    "Test Value": 87.4
  },
  {
    "Compound": "Oc1ccc(Nc2ccc3c(Nc4cc(F)cc(F)c4)ccnc3c2)cc1Cl [Compound 19]",
    "System Tested": "A375 cells",
    "Test Value": 74.9
  },
  {
    "Compound": "COc1ccc(Nc2cc(OCCN3CCOCC3)nc3cc(Cl)ccc23)cc1OC [Compound 32]",
    "System Tested": "A375 cells",
    "Test Value": 84.5
  },
  {
    "Compound": "COc1cccc(Nc2ccc3c(Nc4cc(F)cc(F)c4)ccnc3c2)c1 [Compound 26]",
    "System Tested": "A375 cells",
    "Test Value": 9.9
  },
  {
    "Compound": "COc1ccc(Nc2ccnc3cc(Cl)ccc23)cc1 [Compound 5]",
    "System Tested": "A375 cells",
    "Test Value": 77.1
  }
]

Which measured activity at 1 µM value corresponds to COc1ccc(Nc2cc(N3CCOCC3)nc3cc(Cl)ccc23)cc1OC [Compound 28] ? 87.8
